Just for reference, PubChem BioAssay is where these values come from.

Overview of reported remaining activity across a group of compounds:
- Test system: Aerobactin synthetase IucA (Klebsiella pneumoniae)
- EXPERIMENT: inhibition of K. pneumoniae IucA enzyme – biochemical, Tocris library, absorbance (AID 1345561);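 note: 100% = enzyme without compound and 0% = no enzyme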
- COND: purified IucA enzyme assay, absorbance (OD) read-out; stronger effect = lower value;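 tested at 8 µM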
Number only, in %; omit the unit.

Recorded results for 6 compounds are shown here.
>>> meas_value("O=c1nc2ccccc2c2n1CC(CN1CCN(c3ccccc3)CC1)N2 (stereo unspecified)")
100
>>> meas_value("N#Cc1ccccc1OCC(O)CNCCNC(=O)Nc1ccccc1 (stereo unspecified)")
118
>>> meas_value("CCc1cc2c(c(CC)n1)CCC(=O)N2Cc1ccc(-c2ccccc2-c2nn[nH]n2)cc1")
89.1
>>> meas_value("Cc1nc2c(O)cccc2c(=O)[nH]1")
117
>>> meas_value("COc1ccccc1N1CCN(CCn2c(=O)[nH]c3c([nH]c4ccccc43)c2=O)CC1")
108
>>> meas_value("c1ccc2sc(N3CCN(Cc4ccc5c(c4)OCO5)CC3)nc2c1")
98.7

Qu. Sample CCCCCCCCCCCCCCCC(=O)C(F)(F)F — what was its remaining activity?
Ans. 108

Qu. Repeat with CNc1cc(OC)c(C(=O)N[C@@H]2CCN(Cc3ccccc3)[C@@H]2C)cc1Cl (racemic)
Ans. 104

Qu. Repeat with CC(C)(C)n1nc(-c2cccc3ccccc23)c2c(N)ncnc21
Ans. 117

Qu. Repeat with OCCNCCCOc1cccc(Cl)c1Cl
Ans. 98.9

Qu. Repeat with CC(N)=NCCCC[C@H](N)C(=O)O
Ans. 91.3
